Test system: Yap1 mRNA
Experiment: Dose-dependent inhibition of human Yap1 in A-431 cells (Example 8, 10,000 cells per well, RTS4814)
Format: cell-based
Details: 2000.00 nM; A-431 cells, 10,000 cells per well, free uptake, approximately 48 hours, RTS4814
Strand notation (5' to 3'): a small letter for the sugar, then the base; units joined by * are phosphorothioate-linked, units joined directly phosphodiester-linked; [ ] holds rarer units or linkages, { } end groups; capitals alone tell only the bases. k = constrained ethyl (cEt); [5mC] = 5-methylcytosine; d = 2'-deoxy (DNA)
Use Met when the recorded Yap1 mRNA, % UTC is no lower than 7 % UTC; use Not met when it is lower.

- SUBSTANCE: "1075784 (kA*kT*kT*dT*dT*dA*dT*dA*dG*dG*dG*d[5mC]*d[5mC]*kA*kT*kT; antisense) [compound 1075784]"
  CLASSIFICATION: "Not met"
- SUBSTANCE: "1075118 (k[5mC]*kT*kA*dT*dT*dT*dA*d[5mC]*dT*d[5mC]*dT*dG*dT*k[5mC]*kA*k[5mC]; antisense) [compound 1075118]"
  CLASSIFICATION: "Not met"
- SUBSTANCE: "1075824 (kG*kT*kA*dT*dT*dA*dG*dA*dG*dG*dT*dT*d[5mC]*k[5mC]*kA*kG; antisense) [compound 1075824]"
  CLASSIFICATION: "Not met"
- SUBSTANCE: "1075855 (antisense kG*kA*kT*dT*dT*dT*dT*dA*dG*dG*d[5mC]*dA*dG*kA*k[5mC]*kG) [compound 1075855]"
  CLASSIFICATION: "Met"
- SUBSTANCE: "1076430 (k[5mC]*kG*kT*dT*dA*dT*dA*dA*dG*dA*dT*dG*dT*kG*k[5mC]*kT; antisense) [compound 1076430]"
  CLASSIFICATION: "Not met"
- SUBSTANCE: "1076327 (kG*kA*kT*dA*dA*dG*d[5mC]*dA*dA*dG*dG*dT*dT*k[5mC]*kT*k[5mC]; antisense) [compound 1076327]"
  CLASSIFICATION: "Met"
- SUBSTANCE: "1076015 (kA*kT*kT*dT*dA*dG*dT*dT*dG*dG*dT*dT*dG*kT*kT*kA; antisense) [compound 1076015]"
  CLASSIFICATION: "Met"
- SUBSTANCE: "1076256 (kT*kT*kA*dT*dT*dT*dA*dG*dG*d[5mC]*d[5mC]*d[5mC]*d[5mC]*kA*kT*kA; antisense) [compound 1076256]"
  CLASSIFICATION: "Not met"
- SUBSTANCE: "1074250 (antisense k[5mC]*kT*kG*dA*dT*d[5mC]*dG*dA*dT*dG*dT*dG*dA*kT*kT*kT) [compound 1074250]"
  CLASSIFICATION: "Met"

###

System: Yap1 mRNA
Experiment: Antisense inhibition of human Yap1 in SNU-449 cells by modified oligonucleotides, single dose (Example 5, RTS36584)
Format: cell-based
Settings: Table 45; Yap1 mRNA as percent of untreated control, SNU-449 cells, single dose
Strand notation (5' to 3'): a small letter for the sugar, then the base; units joined by * are phosphorothioate-linked, units joined directly phosphodiester-linked; [ ] holds rarer units or linkages, { } end groups; capitals alone tell only the bases. k = constrained ethyl (cEt); [5mC] = 5-methylcytosine; d = 2'-deoxy (DNA)
READOUT_TYPE: YAP1 (% UTC)

- SUBSTANCE: "1198946 (kA*kA*d[5mC]*dT*d[5mC]*dT*dT*dA*dT*dA*dT*kG*dG*kT*dT*kT; antisense) [Compound 1198946]"
  REPORTED: "72 % UTC"
- SUBSTANCE: "1198895 (kG*kG*dA*dA*dA*dT*dT*dG*dT*d[5mC]*dT*k[5mC]*dA*kT*dG*k[5mC]; antisense) [Compound 1198895]"
  REPORTED: "22 % UTC"
- SUBSTANCE: "1198972 (kA*k[5mC]*dT*dA*dA*dG*dT*dA*dA*dG*dG*kT*dT*kT*d[5mC]*k[5mC]; antisense) [Compound 1198972]"
  REPORTED: "46 % UTC"
- SUBSTANCE: "1198951 (kA*kA*dT*dA*dT*dT*dG*d[5mC]*dA*dA*dT*k[5mC]*dT*kG*dT*k[5mC]; antisense) [Compound 1198951]"
  REPORTED: "81 % UTC"
- SUBSTANCE: "1198945 (kA*k[5mC]*dT*d[5mC]*dT*dT*dA*dT*dA*dT*dG*kG*dT*kT*dT*kT; antisense) [Compound 1198945]"
  REPORTED: "48 % UTC"
- SUBSTANCE: "1198948 (kG*kA*d[5mC]*dA*dA*d[5mC]*dT*d[5mC]*dT*dT*dA*kT*dA*kT*dG*kG; antisense) [Compound 1198948]"
  REPORTED: "96 % UTC"
- SUBSTANCE: "1198973 (kG*kA*d[5mC]*dT*dA*dA*dG*dT*dA*dA*dG*kG*dT*kT*dT*k[5mC]; antisense) [Compound 1198973]"
  REPORTED: "53 % UTC"
- SUBSTANCE: "1198927 (kT*kG*d[5mC]*dT*dT*dT*dG*dG*dA*dA*dG*kA*dT*k[5mC]*dT*kG; antisense) [Compound 1198927]"
  REPORTED: "50 % UTC"
- SUBSTANCE: "1198974 (kA*kG*dA*d[5mC]*dT*dA*dA*dG*dT*dA*dA*kG*dG*kT*dT*kT; antisense) [Compound 1198974]"
  REPORTED: "73 % UTC"
- SUBSTANCE: "1198898 (kA*kT*dA*dT*dG*dG*dA*dA*dA*dT*dT*kG*dT*k[5mC]*dT*k[5mC]; antisense) [Compound 1198898]"
  REPORTED: "53 % UTC"
- SUBSTANCE: "1198912 (kA*kA*d[5mC]*dA*d[5mC]*dT*dG*dA*dG*dG*dT*kA*dT*kA*dA*k[5mC]; antisense) [Compound 1198912]"
  REPORTED: "78 % UTC"
- SUBSTANCE: "1198926 (kG*k[5mC]*dT*dT*dT*dG*dG*dA*dA*dG*dA*kT*d[5mC]*kT*dG*kA; antisense) [Compound 1198926]"
  REPORTED: "45 % UTC"
- SUBSTANCE: "1198918 (kG*k[5mC]*dA*d[5mC]*dT*dT*dT*dT*dA*d[5mC]*dA*kT*dT*kA*dG*kG) [Compound 1198918]"
  REPORTED: "27 % UTC"
